Known viability at 80 µM of a selection of molecules
Test system: T. cruzi infective form (amastigotes and trypomastigotes) (Tulahuen strain) in NIH-3T3 fibroblasts
protocolNotes: T. cruzi viability assay in NIH-3T3 fibroblasts
measurementParameters: Trypanosoma cruzi, TULAHUEN, NIH3T3
Numbers only here, please. The scale is %.

Below: 3 molecules and their reported viability at 80 µM.
Would you kindly share the measured viability at 80 µM for CN1C(=O)C(=Cc2ccc(N(C)C)cc2)C(=O)N(C)C1=O [Compound 2c] ? 79

Requested read-out: viability at 80 µM. Entry: O=C1NC(=O)C(=Cc2ccc(Br)s2)C(=O)N1 [Compound 2f] 74.2

So what does the record say about viability at 80 µM for COc1ccc(C(=O)Nc2sc3c(c2C(N)=O)CCCCC3)cc1OC [Compound 10] ? 50.5

Continuing:
For the molecule shown here, CCOc1ccc(S(=O)(=O)Nc2cccc(Cl)c2C)cc1C [Compound 1j] , give the reported viability at 80 µM. 0

Need viability at 80 µM, item CCOc1ccc([C@@H]2Oc3c(Cl)cc(Cl)cc3C=C2[N+](=O)[O-])cc1OCC [Compound 4a] 0

Look at this molecule and give its reported viability at 80 µM. Nc1c(C(=O)c2cccc([N+](=O)O)c2)sc2nc(-c3cccnc3)ccc12 [Compound 9] 52.7

Fill blank: measured viability at 80 µM of the molecule COc1ccc([C@@H]2Oc3ccccc3C=C2[N+](=O)[O-])cc1OC [Compound 4c] is ____. 0

Fill in: viability at 80 µM of COc1ccc(Br)cc1[C@H]1C(C#N)=C(N)Oc2c1c(C)nn2-c1ccccc1 [Compound 5a] is ___ 0

What does the record list as viability at 80 µM for N#Cc1ccc(-c2cccnc2)nc1SCC(=O)O [Compound 11] ? 86.5

====

System: T. cruzi infective form (amastigotes and trypomastigotes) (Tulahuen strain) in NIH-3T3 fibroblasts
protocolNotes: T. cruzi viability assay in NIH-3T3 fibroblasts
measurementParameters: Trypanosoma cruzi, TULAHUEN, NIH3T3
endpoint: pEC50
Scale for pEC50: -log10 of concentration given in mol/L; no unit attached.

Reference set (3 entries):
Please report the recorded pEC50 for CCOc1ccc([C@@H]2Oc3ccc(Br)cc3C=C2[N+](=O)[O-])cc1OC . 5.66

What does the record list as pEC50 for Cc1cc2c(c(O)c1-c1c(C)cc3c(c1O)C(=CNc1ccc(S(=O)(=O)NC(=N)N)cc1)C(=O)C(O)=C3C(C)C)C(=CNc1ccc(S(=O)(=O)NC(=N)N)cc1)C(=O)C(O)=C2C(C)C ? 5.06

Which value of pEC50 has been reported for COc1ccc(S(=O)(=O)Nc2cccc(Br)c2)c(Cl)c1Cl in the records? 4.88

***
Would you kindly share the measured pEC50 for CCOc1ccc([C@@H]2Oc3c(Cl)cc(Cl)cc3C=C2[N+](=O)[O-])cc1OCC ? 5.53

====

Entries annotated with measured IC50
testSystem: Trypanosoma cruzi glucokinase (TcGlcK) (Trypanosoma cruzi)
Construct: made in house
Sequence (Q4E4E1 1-376): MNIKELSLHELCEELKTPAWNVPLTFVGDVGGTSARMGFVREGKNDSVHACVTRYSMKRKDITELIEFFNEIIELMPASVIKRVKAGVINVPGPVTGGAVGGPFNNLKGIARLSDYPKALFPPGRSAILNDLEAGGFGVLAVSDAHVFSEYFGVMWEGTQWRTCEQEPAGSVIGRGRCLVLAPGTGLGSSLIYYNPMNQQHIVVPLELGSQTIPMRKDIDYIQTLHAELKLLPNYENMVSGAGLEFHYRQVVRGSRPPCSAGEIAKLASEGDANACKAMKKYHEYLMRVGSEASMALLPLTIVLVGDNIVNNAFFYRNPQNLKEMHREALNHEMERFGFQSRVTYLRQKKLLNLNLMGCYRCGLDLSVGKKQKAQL
protocolNotes: TcGlcK-HsΔG6PDH-diaphorase coupled assay, IC50 determination
Assay type: biochemical
measurementParameters: TcGlcK - inhibitor IC50, enzymatic coupled assay; read-out: IC50
Number only, in µM; omit the unit.

So what does the record say about IC50 for CCOc1ccc([C@@H]2Oc3ccc(Br)cc3C=C2[N+](=O)[O-])cc1OC [Compound 4b] ? 6.5

So what's the measured IC50 for this one? CCOc1ccc([C@@H]2Oc3c(Cl)cc(Cl)cc3C=C2[N+](=O)[O-])cc1OCC [Compound 4a] 4.8

Please look up its IC50: Cc1nn(-c2ccccc2)c2c1[C@@H](c1ccc(F)cc1)C(C#N)=C(N)O2 [Compound 5b] 17.1

Which IC50 value belongs to Cc1cc2c(c(O)c1-c1c(C)cc3c(c1O)/C(=C/Nc1c(O)cc(S(=O)(=O)O)c4ccccc14)C(=O)C(O)=C3C(C)C)/C(=C/Nc1c(O)ccc3c(S(=O)(=O)O)cccc13)C(=O)C(O)=C2C(C)C [Compound 6c] ? 30.2

More entries:
Returns the measured IC50 for the input compound. Input: CCOc1ccc([C@@H]2Oc3ccccc3C=C2[N+](=O)[O-])cc1OCC [Compound 4d] 69.1

For the compound COc1ccc(Br)cc1[C@H]1C(C#N)=C(N)Oc2c1c(C)nn2-c1ccccc1 [Compound 5a] , what IC50 is on record? 18.8

Which IC50 value is on record for COc1ccc([C@@H]2Oc3ccccc3C=C2[N+](=O)[O-])cc1OC [Compound 4c] ? 53.2

Which measured IC50 value corresponds to COc1ccc(S(=O)(=O)Nc2cccc(Br)c2)c(Cl)c1Cl [Compound 1a] ? 7.2

Item under review: Cc1cc2c(c(O)c1-c1c(C)cc3c(c1O)C(=CNc1ccc(S(=O)(=O)NC(=N)N)cc1)C(=O)C(O)=C3C(C)C)C(=CNc1ccc(S(=O)(=O)NC(=N)N)cc1)C(=O)C(O)=C2C(C)C [Compound 6a] . Reported IC50? 13.2

Consider the compound Cc1cc2c(c(O)c1-c1c(C)cc3c(c1O)/C(=C/Nc1cccc4c(N)cccc14)C(=O)C(O)=C3C(C)C)/C(=C/Nc1cccc3c(N)cccc13)C(=O)C(O)=C2C(C)C [Compound 6b] and give its measured IC50. 16.5

For the compound Cc1cc2c(c(O)c1-c1c(C)cc3c(c1O)/C(=C/Nc1ccc(Cc4ccc(N)cc4)cc1)C(=O)C(O)=C3C(C)C)/C(=C/Nc1ccc(Cc3ccc(N)cc3)cc1)C(=O)C(O)=C2C(C)C [Compound 6d] , what IC50 is on record? 61.6

====

testSystem: Trypanosoma cruzi glucokinase (TcGlcK) (Trypanosoma cruzi)
Construct: made in house
protocolNotes: TcGlcK-HsΔG6PDH-diaphorase coupled assay, IC50 determination
Type: biochemical
endpoint: pIC50
Scale note: pIC50 = -log10(concentration in M).

Some compounds with recorded pIC50:
Quick one: pIC50 of O=C1NC(=O)C(=Cc2ccc(O)c(O)c2)C(=O)N1 ? 5.38

Which pIC50 is listed for CN1C(=O)C(=Cc2ccc(N(C)C)cc2)C(=O)N(C)C1=O ? 5.26

Could you share which pIC50 value was measured for O=C1NC(=O)C(=Cc2ccc(N3CCOCC3)cc2)C(=O)N1 ? 5.77

Give the measured pIC50 of O=C1C(=Cc2ccco2)C(=O)N(c2ccccc2)C(=O)N1c1ccccc1 . 6.22

Looking for the measured pIC50 of O=C1NC(=O)C(=Cc2ccc3c(c2)OCO3)C(=O)N1 , can you help? 5.06

Endpoint output: pIC50 of Cc1cc(N2CCOCC2)ccc1/C=C1/C(=O)NC(=O)N(c2ccc3c(c2)OCO3)C1=O . Value? 5.96

Reported pIC50 for COc1ccc(Br)cc1/C=C1/C(=O)NC(=O)N(CCC2=CCCCC2)C1=O : what is it? 4.86

We now examine a further compound.
Which pIC50 is listed for O=C1NC(=O)C(=Cc2ccc(Br)s2)C(=O)N1 ? 5.62

====

# Lookup of reported viability at 80 µM keyed by entry
Test system: T. cruzi infective form (amastigotes and trypomastigotes) (Tulahuen strain) in NIH-3T3 fibroblasts
protocolNotes: T. cruzi viability assay in NIH-3T3 fibroblasts
measurementParameters: Trypanosoma cruzi, TULAHUEN, NIH3T3
Don't forget the unit after the number, please.

Solved cases (4 shown):
What value of viability at 80 µM has been reported for the following molecule? CCOc1ccc(S(=O)(=O)Nc2c(F)cccc2F)cc1Cl [Compound 1i] 4.9%

// query viability at 80 µM value for entry O=[N+]([O-])C1=Cc2c(ccc3ccccc23)O[C@H]1c1ccc2c(c1)OCO2 [Compound 4e] 0%

Would you mind telling me what viability at 80 µM value was observed for COc1ccc(S(=O)(=O)Nc2ccc(Br)cc2F)cc1Cl [Compound 1g] ? 0%

Tell me the measured viability at 80 µM of O=C1C(=Cc2ccco2)C(=O)N(c2ccccc2)C(=O)N1c1ccccc1 [Compound 2a] , please. 66.5%

Turning now to a further record.
Fill in: viability at 80 µM of Cc1cc2c(c(O)c1-c1c(C)cc3c(c1O)/C(=C/Nc1ccc(Cc4ccc(N)cc4)cc1)C(=O)C(O)=C3C(C)C)/C(=C/Nc1ccc(Cc3ccc(N)cc3)cc1)C(=O)C(O)=C2C(C)C [Compound 6d] is ___ 63.3%

====

Form field: viability at 80 µM (one value per entry).
Tested on: T. cruzi infective form (amastigotes and trypomastigotes) (Tulahuen strain) in NIH-3T3 fibroblasts
protocolNotes: T. cruzi viability assay in NIH-3T3 fibroblasts
measurementParameters: Trypanosoma cruzi, TULAHUEN, NIH3T3
Your answer is read as %, so omit the unit and give the number.

Look at this compound and give its reported viability at 80 µM. COc1ccc(S(=O)(=O)Nc2ccccc2)cc1F [Compound 1l] 34.6

Value lookup for viability at 80 µM; key = O=S(=O)(Nc1ccc(O)cc1)c1cc(Cl)ccc1Cl [Compound 1m] 0.6

So what's the measured viability at 80 µM for this one? COc1ccc(S(=O)(=O)Nc2ccc(F)c(F)c2)cc1I [Compound 1e] 0

Query (compound): COc1cc(S(=O)(=O)Nc2cccc(Cl)c2C)c(C)cc1C [Compound 1c] ; field requested: viability at 80 µM 0

So what does the record say about viability at 80 µM for CCOc1cc(S(=O)(=O)Nc2ccc(Cl)cc2)ccc1F [Compound 1h] ? 0

Give its viability at 80 µM value. Item: COc1ccc(F)cc1S(=O)(=O)Nc1ccc(Cl)cc1 [Compound 1n] 2.4

I would be grateful if you could share the reported viability at 80 µM for Cc1cc(N2CCOCC2)ccc1/C=C1/C(=O)NC(=O)N(c2ccc3c(c2)OCO3)C1=O [Compound 2b] . 57
